Data origin: PubChem BioAssay

Item-by-item account of inhibition
- procedure.text: Apaf-1 inhibitors, single-dose retest, confirmation, biochemical, fluorescence, DEVD-Rh110, 20 µM (AID 504614);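 also: plate controls were DMSO wells for no effect and DEVD-CHO caspase inhibitor control wells for full effect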
- measurement.setup: reconstituted apoptosome, caspase-3 DEVD-Rh110 fluorescence; at 20 µM; hits give high values
The list shows a part of the results. The source made the active and inactive calls.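 The calls were made as follows: active = mean inhibition of at least 40% at 20 µM; inactive = the rest.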

{"compound": "COc1ccc(S(=O)(=O)/N=C2\\C=C(NS(=O)(=O)c3ccccc3)C(=O)c3ccccc32)cc1", "result": "52.3% (active)"}
{"compound": "CC(NC(=O)c1ccccc1SCC(=O)N1CCCC1)c1ccccc1 (centres undefined)", "result": "22.9% (inactive)"}
{"compound": "C(=N/Nc1cc(N2CCOCC2)nc(N2CCOCC2)n1)/c1ccccc1", "result": "27.8% (inactive)"}
{"compound": "CCOc1c(Br)cc(/C=C2\\C(=O)N(CCC#N)N=C2C)cc1OC", "result": "13.1% (inactive)"}

Check the records and state inhibition for "C=CCn1c(N)c(C(=O)OCC(C)C)c2nc3ccccc3nc21"
19.4% (inactive)

Please list inhibition recorded for the compound "O=C(Cc1cc(=O)[nH][nH]1)N/N=C/c1ccccc1[N+](=O)[O-]"
5.01% (inactive)

Read the entry CCCCNC(=O)C(C)N(CCN(C)C)C(=O)CCCCCN1C(=O)NC(c2ccc(Cl)cc2)C(C(=O)OCc2ccccc2)=C1C (centres undefined) and write its reported inhibition.
22.9% (inactive)

Give a short answer stating reported inhibition for "Cc1cc(N2CCCC2)ccc1NC(=O)COc1ccc(Cl)cc1" .
28.9% (inactive)

Give the value of inhibition reported for the following: "C#CCOCCOCCOCCNc1nc(N2CCN(C(=O)CCCCCCCCCCNC(=O)[C@H](CCCCN)n3cc(C)nn3)CC2)nc(N2CCN(C(=O)CCCCCCCCCCNC(=O)[C@H](CO)n3cc(CCCSC)nn3)CC2)n1"
4.3% (inactive)
